System: Fusarium oxysporum f. sp. lini
Experiment: Antifungal activity against Fusarium oxysporum f. sp. lini assessed as inhibition of radial fungal growth at 0.58 mM after 6 days
Format: functional
Settings: 144 h, read-out: GI
// -1 strictly below 20% in inhibition of growth at 580 µM; 1 otherwise

In: Decide: inhibition of growth at 580 µM of CCSC(=S)NCC(O)CNC(=S)SCC >= 20%?
Out: 1

====

Recorded measurements of inhibition of growth at 580 µM, one per entry
Tested on: Fusarium oxysporum f. sp. lini
Test: Antifungal activity against Fusarium oxysporum f. sp. lini assessed as inhibition of radial fungal growth at 0.58 mM after 6 days
Type: functional
Conditions: 144 h, read-out: GI
Your answer should be a plain number; it is taken to be in %.

Solved entries:
1. CCN(CC)C(=S)SCC(=O)CSC(=S)N(CC)CC
12
2. CCN(CC)C(=S)SC[C@H](O)[C@H]1O[C@@H]2OC(C)(C)O[C@@H]2[C@H]1SC(=S)N(CC)CC
17
3. CCN(CC)C(=S)SCC(O)CSC(=S)N(CC)CC
30
4. CCN(CC)C(=S)SCC(O)CO (racemic)
10
5. CCCC(=O)OC(CSC(=S)N(CC)CC)CSC(=S)N(CC)CC
12

In: Report measured inhibition of growth at 580 µM; entry is CCN(CC)C(=S)SCC(CSC(=S)N(CC)CC)OC(C)=O
Out: 12

In: Report measured inhibition of growth at 580 µM; entry is CCCCCCCC(=O)OC(CSC(=S)N(CC)CC)CSC(=S)N(CC)CC
Out: 7

In: Report measured inhibition of growth at 580 µM; entry is CCN(CC)C(=S)SC[C@H]1OC(O)[C@H](O)[C@@H](SC(=S)N(CC)CC)[C@@H]1O (stereo partly drawn)
Out: 18

Attribution: ChEMBL document CHEMBL3045340
